- Procedure Summary: Acute toxicity in mice (Experiment 3)
- Type: in vivo, Mouse (Jcl:ICR)
- Assay Context: mouse, in vivo, sc, female, subcutaneous
Measured Metric: LD50

Which measured LD50 value corresponds to CCCCn1c(=O)n(CCC)c(=O)c2c(NC)n(C(=O)OC)nc21 ?
> 5000 mg/kg

* * *

- Procedure Summary: Acute toxicity in mice (Experiment 3)
- Format: in vivo, Mouse (Jcl:ICR)
- Assay Context: mouse, in vivo, ip, male, intraperitoneal
Measured Metric: LD50 (mg/kg)
Numbers only, in mg/kg.

Which value of LD50 has been reported for CCCCn1c(=O)n(CCC)c(=O)c2c(NC)n(C(=O)OC)nc21 [Compound (A)] in the records?
1040
